Tested on: ADCK3;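 further: KINOMEscan kinase panel screen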
Construct: gene CABC1
conditionNotes: concentration: 1 μM,replicates: in singlicate; n = 1
# maps each entry to its %Inh
Please reply with the bare figure in % and do not write the unit itself.

Here is how some molecules turned out for %Inh.
[
  {
    "molecule": "CCN1CCN(CCCC(=O)Nc2n[nH]c3nc(-c4ccc(O)cc4)c(Br)cc23)CC1 [SB-731579]",
    "%Inh, %": 0
  },
  {
    "molecule": "C[C@@H]1CNc2c(sc3ccc4nc(-c5ccncc5)ccc4c23)C(=O)N1",
    "%Inh, %": 0
  },
  {
    "molecule": "CN(c1ccc2c(c1)nc(NCc1ccc(F)cc1)n2C)c1ccnc(Nc2ccc(CS(C)(=O)=O)cc2)n1.Cl [GW813244]",
    "%Inh, %": 0
  }
]

The value of %Inh recorded for NC(=O)Nc1sc(-c2ccc(F)cc2)cc1C(N)=O [GW789449] when tested on ADCK3 reads 5

The value of %Inh recorded for Cn1ccc2ncnc(Oc3ccc(NC(=O)Nc4ccnc(C(F)(F)F)c4)c(Cl)c3)c21 when tested on ADCK3 reads 0

The value of %Inh recorded for CN(c1cccc(CNc2nc(Nc3ccc4c(c3)CC(=O)N4)ncc2C(F)(F)F)c1)S(C)(=O)=O when tested on ADCK3 reads 0

The value of %Inh recorded for O=c1[nH]cc(-c2ccc(O)cc2)c2sc(-c3ccncc3)cc12 [GSK1033723] when tested on ADCK3 reads 34

The value of %Inh recorded for Cn1ccc2ncnc(Oc3ccc(NC(=O)Nc4cccc(C(F)(F)F)c4)c(F)c3)c21 when tested on ADCK3 reads 18
